Source: patent US10517889B2

# System: human SMAD7 mRNA
# Assay: Dose-dependent inhibition of human SMAD7 mRNA expression in Hep3B cells (Example 3, Study 1 and 2)
# Format: cell-based
# Run parameters: electroporation, Study 2 (740-20000 nM)
Strand notation (5' to 3'): a small letter for the sugar, then the base; units joined by * are phosphorothioate-linked, units joined directly phosphodiester-linked; [ ] holds rarer units or linkages, { } end groups; capitals alone tell only the bases. k = constrained ethyl (cEt); [5mC] = 5-methylcytosine; d = 2'-deoxy (DNA)
Quantity name: pIC50
In plain terms, pIC50 is the concentration in mol/L turned into minus its base-10 logarithm.

Query: Query (substance): 830157 (antisense kG*kA*kA*d[5mC]*dT*dG*dT*dG*d[5mC]*d[5mC]*dT*d[5mC]*dA*kG*k[5mC]*kA) [compound 830157] ; field requested: pIC50
Result: 5.52

Query: Now this one: 799967 (kG*kA*k[5mC]*dG*dA*dT*dG*dA*dA*dT*d[5mC]*d[5mC]*dT*kG*kG*k[5mC]; antisense) [compound 799967]
Result: 5.05

Query: Now this one: 790732 (kG*k[5mC]*kT*dT*dA*dT*dT*dT*d[5mC]*dA*dT*dG*dT*kG*kG*kT; antisense) [compound 790732]
Result: 5.70
